Just for reference, the supplement of paper PMC10567573 is where these values come from.

B1: PCMTD2 (parent)
chain: FFIRTSDSFDKFDFCEPSFVTGNC

Variants of: B1
assay_details: protein stability index of a GFP-peptide fusion (GPS, HEK-293T) (PSI 1-6); higher = more stable;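 also: lentivirally expressed fusions sorted by FACS into six bins by GFP to DsRed ratio, PSI derived from sequencing read proportions per bin multiplied by bin number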
condition_info: c terminus: a fixed tail appended
endpoint_name: protein stability index

[
  {
    "variant_name": "D7A",
    "endpoint_name": "protein stability index",
    "assay_value": 2.62
  },
  {
    "variant_name": "S18R",
    "endpoint_name": "protein stability index",
    "assay_value": 2.39
  },
  {
    "variant_name": "S8A",
    "endpoint_name": "protein stability index",
    "assay_value": 2.85
  },
  {
    "variant_name": "S6F",
    "endpoint_name": "protein stability index",
    "assay_value": 2.43
  },
  {
    "variant_name": "F2Y",
    "endpoint_name": "protein stability index",
    "assay_value": 2.58
  },
  {
    "variant_name": "D7W",
    "endpoint_name": "protein stability index",
    "assay_value": 3.44
  },
  {
    "variant_name": "I3V",
    "endpoint_name": "protein stability index",
    "assay_value": 2.18
  },
  {
    "variant_name": "P17V",
    "endpoint_name": "protein stability index",
    "assay_value": 4.75
  },
  {
    "variant_name": "F1D",
    "endpoint_name": "protein stability index",
    "assay_value": 2.41
  },
  {
    "variant_name": "S18V",
    "endpoint_name": "protein stability index",
    "assay_value": 2.45
  },
  {
    "variant_name": "I3L",
    "endpoint_name": "protein stability index",
    "assay_value": 1.73
  },
  {
    "variant_name": "P17I",
    "endpoint_name": "protein stability index",
    "assay_value": 2.35
  },
  {
    "variant_name": "S18C",
    "endpoint_name": "protein stability index",
    "assay_value": 3.71
  },
  {
    "variant_name": "T21S",
    "endpoint_name": "protein stability index",
    "assay_value": 2.18
  },
  {
    "variant_name": "S8E",
    "endpoint_name": "protein stability index",
    "assay_value": 1.91
  },
  {
    "variant_name": "T5A",
    "endpoint_name": "protein stability index",
    "assay_value": 3.25
  },
  {
    "variant_name": "T5N",
    "endpoint_name": "protein stability index",
    "assay_value": 1.75
  },
  {
    "variant_name": "T5Q",
    "endpoint_name": "protein stability index",
    "assay_value": 1.78
  },
  {
    "variant_name": "F9T",
    "endpoint_name": "protein stability index",
    "assay_value": 1.7
  },
  {
    "variant_name": "F9M",
    "endpoint_name": "protein stability index",
    "assay_value": 2.99
  },
  {
    "variant_name": "N23S",
    "endpoint_name": "protein stability index",
    "assay_value": 2.54
  },
  {
    "variant_name": "D13I",
    "endpoint_name": "protein stability index",
    "assay_value": 3.44
  }
]
